Items are presented alongside their recorded MIC90.
# Test system: Enterobacter aerogenes ATCC 13048 T
# experimentalProtocol: microbe, parasite or virus in culture
# Type: cell-based
# studyConditions: Klebsiella aerogenes, ATCC13048

{"smilesRepresentation": "NNC(=O)c1ccncc1", "MIC90": "> 500 µM"}
{"smilesRepresentation": "CO[C@H]1/C=C/O[C@@]2(C)Oc3c(C)c(O)c4c(O)c(c(/C=N/N5CCN(C)CC5)c(O)c4c3C2=O)NC(=O)/C(C)=C\\C=C\\[C@H](C)[C@H](O)[C@@H](C)[C@@H](O)[C@@H](C)[C@H](OC(C)=O)[C@@H]1C", "MIC90": "> 100 µM"}
{"smilesRepresentation": "O=C(Nc1ccc(N2CCN(c3ccccn3)CC2)c(F)c1)c1ccc2no[n+]([O-])c2c1", "MIC90": "> 200 µM"}
{"smilesRepresentation": "O=C(Nc1ccc(N2CCSCC2)c(F)c1)c1ccc2no[n+]([O-])c2c1", "MIC90": "> 200 µM"}
